# System: SK-MEL-5 melanoma
# run_description: NCI tumour cell line growth inhibition, 48 h
property_name: TGI

[
  {
    "compound": "COC(OC)[C@@H]1OC[C@@H](O)[C@@H]1n1cnc2c(N)ncnc21",
    "assay_result": "> 100 µM"
  },
  {
    "compound": "O=c1cnn(CCOCP(=O)(O)O)c(=O)[nH]1",
    "assay_result": "> 100 µM"
  },
  {
    "compound": "CC1C(c2ccc(Cl)cc2)c2cc3c(cc2OC1N1CCOCC1)OCO3 (configuration not stated)",
    "assay_result": "> 100 µM"
  },
  {
    "compound": "COc1cc(CCc2ccc(N)cc2)cc(OC)c1OC",
    "assay_result": "> 89.6 µM"
  },
  {
    "compound": "CC(C)(C)C(C#N)(C#N)c1ccc(C(C#N)(C#N)C(C)(C)C)nn1",
    "assay_result": "> 100 µM"
  },
  {
    "compound": "Cn1c(-c2c(N)n(CCCN3CCOCC3)c3nc(C#N)c(C#N)nc23)nc2ccccc21",
    "assay_result": "> 44.9 µM"
  },
  {
    "compound": "CC(=O)NC(CC(C)C)C(=O)NC(Cc1ccccc1)C(=S)N1CCCC1 (configuration not stated)",
    "assay_result": "> 100 µM"
  },
  {
    "compound": "CC(=N\\N)/C(C)=N/N=C(C)/C(C)=N/N=C(C)/C(C)=N/N",
    "assay_result": "> 100 µM"
  },
  {
    "compound": "CCN1CCN(C(=O)[C@]23CCC(C)(C)C[C@@H]2C2=CC[C@@H]4[C@@]5(C)C/C(=C/c6ccncc6)C(=O)C(C)(C)[C@@H]5CC[C@@]4(C)[C@]2(C)CC3)CC1",
    "assay_result": "2.99 µM"
  },
  {
    "compound": "N#C[C@H](c1nc2ccccc2s1)c1nc2ccccc2nc1Cl",
    "assay_result": "> 100 µM"
  },
  {
    "compound": "CO[C@H]1C[C@@H]2CC[C@@H](C)[C@@](O)(O2)C(=O)C(=O)N2CCCC[C@H]2C(=O)O[C@H]([C@H](C)C[C@@H]2CC[C@@H](OCCO)[C@H](OC)C2)CC(=O)[C@H](C)C=C(C)[C@@H](O)[C@@H](OC)C(=O)[C@H](C)C[C@H](C)/C=C/C=C/C=C1C",
    "assay_result": "18.1 µM"
  },
  {
    "compound": "COc1ccc(N=N/C(C(=O)C(F)(F)F)=C(\\O)c2ccc(Cl)cc2)cc1",
    "assay_result": "14.3 µM"
  }
]
